Catalogue of pIC50 readings, one per entry.
- experimental_system: human PCSK9 / human LDLR EGFa domain interaction (Homo sapiens (Human))
- Sequence (Q8NBP7 153-692): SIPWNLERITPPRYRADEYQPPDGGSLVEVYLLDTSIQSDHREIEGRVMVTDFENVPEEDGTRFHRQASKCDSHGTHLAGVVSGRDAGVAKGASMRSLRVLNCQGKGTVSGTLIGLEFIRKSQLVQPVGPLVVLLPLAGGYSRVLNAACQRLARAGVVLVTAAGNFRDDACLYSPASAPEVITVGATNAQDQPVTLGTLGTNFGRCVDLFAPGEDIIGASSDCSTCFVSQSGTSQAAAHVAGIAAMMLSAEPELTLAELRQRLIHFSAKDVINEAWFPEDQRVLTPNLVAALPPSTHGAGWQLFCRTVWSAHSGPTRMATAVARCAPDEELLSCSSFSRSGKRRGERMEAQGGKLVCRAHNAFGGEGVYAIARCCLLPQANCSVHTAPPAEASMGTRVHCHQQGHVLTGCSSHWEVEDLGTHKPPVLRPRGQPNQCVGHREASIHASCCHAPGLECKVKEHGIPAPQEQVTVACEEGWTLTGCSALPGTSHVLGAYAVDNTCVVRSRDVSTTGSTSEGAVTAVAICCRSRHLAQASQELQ
- Sequence (Q8NBP7 31-152 partner): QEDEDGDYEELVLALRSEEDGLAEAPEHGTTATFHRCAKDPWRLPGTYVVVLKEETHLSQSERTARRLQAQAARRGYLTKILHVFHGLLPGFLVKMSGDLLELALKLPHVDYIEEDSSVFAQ
- procedure_text: TR-FRET assay of inhibition of the PCSK9-LDLR protein-protein interaction
- Format: binding
- assay_context: TR-FRET, 20 nM human PCSK9, 20 nM human LDLR EGFa domain, 2 hours room temperature; read-out: IC50
pIC50: −log10 of the molar value. Starred links: 1 amine or outer side, 2 acyl side, 3 side chain; linkers in the order of their positions; H or OH if unused. Positions of bridges follow the written chain, without caps; N, C: chain ends. Non-standard residues stand in square brackets, D forms with d. Residues, ends and D or L forms follow the SMILES beside them. Trp(5-F) = N[C@@H](Cc1c[nH]c2ccc(F)cc12)C(=O)O; Bip = N[C@@H](Cc1ccc(-c2ccccc2)cc1)C(=O)O; X4 = O=C(CCSCc1cccc(CSCCN[*:1])c1)[*:2]; Phe(4-Me) = Cc1ccc(C[C@H](N)C(=O)O)cc1; mXylylene = c1cc(C[*:1])cc(C[*:2])c1; X6 = O=C(Cc1ccc(CN[*:2])cc1)[*:1]; αMeK = C[C@](N)(CCCCN)C(=O)O; αMeP = C[C@@]1(C(=O)O)CCCN1; dDab = NCC[C@@H](N)C(=O)O; Orn = NCCC[C@H](N)C(=O)O; Aze = O=C(O)[C@@H]1CCN1; X2 = O=C(C[*:2])[*:1]; Mpa = O=C(O)CCS

molecule	pIC50
COc1ccc(C[C@@H]2NC(=O)[C@H](Cc3cnc[nH]3)NC(=O)[C@H](CC(=O)O)NC(=O)[C@H](Cc3c[nH]c4ccc(F)cc34)NC(=O)[C@H](Cc3c[nH]c4ccc(F)cc34)NC(=O)[C@@H](C)NC(=O)[C@H](NC(C)=O)CCCCNC(=O)Cc3ccc(cc3)CNC(=O)C[C@@H](C(N)=O)NC(=O)[C@]3(C)CCCN3C2=O)cc1 [Compound 397] (Ac-[dK][dA][Trp(5-F)][Trp(5-F)]DHY(Me)[αMeP]D-NH2; linker 1-9 via X6)	4.92 to 6.00
COc1ccc(C[C@@H]2NC(=O)[C@@H]3CC/C=C\CO[C@H]4C[C@@H](C(=O)N3)N(C4)C(=O)[C@H](Cc3c[nH]c4ccc(F)cc34)NC(=O)[C@H](Cc3c[nH]c4ccc(F)cc34)NC(=O)[C@@H](C)NC(=O)[C@H](C)NC(=O)[C@@H](NC(C)=O)CC(=O)NCc3ccc(cc3)C[C@@H](C(=O)O)NC(=O)[C@]3(C)CCCN3C2=O)cc1	6.00 to 7.00
C[C@@H]1NC(=O)[C@@H]2CCN2C(=O)[C@H](Cc2c[nH]c3ccc(F)cc23)NC(=O)[C@H](Cc2c[nH]c3ccc(F)cc23)NC(=O)[C@@H](C)NC(=O)[C@H](CCCCN)NC(=O)CCSCc2cccc(c2)CSCCNC(=O)[C@]2(C)CCCN2C(=O)[C@H](Cc2ccc(O)cc2)NC1=O [Compound 002] (cyclo(AY[αMeP][X4]K[dA][Trp(5-F)][Trp(5-F)][Aze]))	4.30 to 4.68
C[C@@]12CCCN1C(=O)[C@H](Cc1ccc(O)cc1)NC(=O)[C@H](Cc1cnc[nH]1)NC(=O)[C@H](CC(=O)O)NC(=O)[C@H](Cc1c[nH]c3ccc(F)cc13)NC(=O)[C@H](Cc1c[nH]c3ccc(F)cc13)NC(=O)CNC(=O)[C@@H](CCN)NC(=O)CCSCc1cccc(c1)CSC[C@@H](C(N)=O)NC2=O [Compound 355] ([Mpa][dDab]G[Trp(5-F)][Trp(5-F)]DHY[αMeP]C-NH2; linker 1-10 via mXylylene)	6.00 to 7.00
NCCCC[C@@H]1NC(=O)CCSCc2cccc(c2)CSC[C@@H](C(N)=O)NC(=O)[C@@H]2CCCN2C(=O)[C@H](Cc2ccc(O)cc2)NC(=O)[C@H](Cc2c[nH]cn2)NC(=O)[C@H](CC(=O)O)NC(=O)[C@H](Cc2c[nH]c3ccc(F)cc23)NC(=O)[C@H](Cc2ccc(-c3ccccc3)cc2)NC(=O)CNC1=O [Compound 210] ([Mpa]KG[Bip][Trp(5-F)]DHYPC-NH2; linker 1-10 via mXylylene)	4.92 to 6.00
C[C@H]1NC(=O)[C@H](CCCCN)NC(=O)CCSCc2cccc(c2)CSC[C@@H](C(N)=O)NC(=O)[C@]2(C)CCCN2C(=O)[C@H](Cc2ccc(O)cc2)NC(=O)[C@H]([C@@H](C)O)NC(=O)[C@@H]2CCCN2C(=O)[C@H](Cc2c[nH]c3ccc(F)cc23)NC(=O)[C@H](Cc2c[nH]c3ccc(F)cc23)NC1=O [Compound 044] ([Mpa]K[dA][Trp(5-F)][Trp(5-F)]PTY[αMeP]C-NH2; linker 1-10 via mXylylene)	6.00 to 7.00
CC(=O)N[C@H]1CCCNC(=O)COc2ccc(cc2)C[C@@H](C(N)=O)NC(=O)[C@]2(C)CCCN2C(=O)[C@H](Cc2ccc(O)cc2)NC(=O)[C@H](Cc2cnc[nH]2)NC(=O)[C@H](CC(=O)O)NC(=O)[C@H](Cc2c[nH]c3ccc(F)cc23)NC(=O)[C@H](Cc2c[nH]c3ccc(F)cc23)NC(=O)CNC(=O)[C@H](C)NC1=O [Compound 364] (Ac-[Orn]AG[Trp(5-F)][Trp(5-F)]DHY[αMeP]Y-NH2; linker 1-10 via X2)	6.00 to 7.00
Cc1ccc(C[C@@H]2NC(=O)[C@H](Cc3c[nH]cn3)NC(=O)[C@H](CC(=O)O)NC(=O)[C@H](Cc3c[nH]c4ccc(F)cc34)NC(=O)[C@H](Cc3c[nH]c4ccc(F)cc34)NC(=O)[C@@H](C)NC(=O)[C@H](CCCCN)NC(=O)CCSCc3cccc(c3)CSCCNC(=O)[C@]3(C)CCCN3C2=O)cc1 [Compound 299] (cyclo(DH[Phe(4-Me)][αMeP][X4]K[dA][Trp(5-F)][Trp(5-F)]))	6.00 to 7.00
C[C@@]1(CCCCN)NC(=O)CCSCc2cccc(c2)CSC[C@@H](C(N)=O)NC(=O)[C@@H]2CCCN2C(=O)[C@H](Cc2ccc(O)cc2)NC(=O)[C@H](Cc2c[nH]cn2)NC(=O)[C@H](CC(=O)O)NC(=O)[C@H](Cc2c[nH]c3ccc(F)cc23)NC(=O)[C@H](Cc2c[nH]c3ccc(F)cc23)NC(=O)CNC1=O [Compound 214] ([Mpa][αMeK]G[Trp(5-F)][Trp(5-F)]DHYPC-NH2; linker 1-10 via mXylylene)	4.92 to 6.00
COc1ccc(C[C@@H]2NC(=O)[C@H](Cc3cnc[nH]3)NC(=O)[C@H](CC(=O)O)NC(=O)[C@H](Cc3c[nH]c4ccc(F)cc34)NC(=O)[C@H](Cc3c[nH]c4ccc(F)cc34)NC(=O)[C@@H](C)NC(=O)[C@H](CCCCN)NC(=O)[C@@H](NC(C)=O)CCc3cn(nn3)-c3ccc(cc3)C[C@@H](C(N)=O)NC(=O)[C@]3(C)CCCN3C2=O)cc1	7.00 to 10.00
